- target.or.system: Glucocorticoid receptor (Homo sapiens) (UniProt P04150)
- Sequence (P04150 whole entry, looked up): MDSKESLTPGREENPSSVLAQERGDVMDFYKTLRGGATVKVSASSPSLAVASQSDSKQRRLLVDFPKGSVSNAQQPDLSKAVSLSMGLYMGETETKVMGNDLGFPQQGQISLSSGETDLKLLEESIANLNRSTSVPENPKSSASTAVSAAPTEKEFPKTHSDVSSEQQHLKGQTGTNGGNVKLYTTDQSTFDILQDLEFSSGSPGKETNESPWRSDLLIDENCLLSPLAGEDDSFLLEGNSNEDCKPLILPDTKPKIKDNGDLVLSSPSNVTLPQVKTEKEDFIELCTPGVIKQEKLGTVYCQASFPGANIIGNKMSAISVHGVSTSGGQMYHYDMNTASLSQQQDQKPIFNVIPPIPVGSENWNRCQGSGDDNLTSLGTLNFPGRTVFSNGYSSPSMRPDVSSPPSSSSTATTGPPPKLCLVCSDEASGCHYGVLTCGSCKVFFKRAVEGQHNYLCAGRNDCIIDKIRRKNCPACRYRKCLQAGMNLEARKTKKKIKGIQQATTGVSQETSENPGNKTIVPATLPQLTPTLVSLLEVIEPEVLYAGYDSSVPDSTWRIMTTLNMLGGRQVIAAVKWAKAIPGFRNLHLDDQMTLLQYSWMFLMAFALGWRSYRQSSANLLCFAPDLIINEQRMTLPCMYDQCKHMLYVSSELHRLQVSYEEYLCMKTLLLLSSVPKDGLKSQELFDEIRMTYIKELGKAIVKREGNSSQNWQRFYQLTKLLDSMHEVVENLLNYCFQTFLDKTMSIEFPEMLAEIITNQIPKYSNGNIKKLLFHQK
- protocol.text: GR-GFP Redistribution (AID 450); note: potency is the fitted concentration of half-maximal effect
- test.context: U2OS GR-GFP nuclear translocation, laser cytometry, 2 h
Calls of active or inactive are those of the source.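 Rule for the calls: active = compounds whose dose series gives a full or clear partial fitted curve of increased nuclear translocation; inconclusive = weak partial curve or effect only at the top dose; inactive = no dose-dependent translocation response.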

>  <sample.smiles>
CCNc1ncc2nc(CCc3ccccc3)c(=O)n(-c3ccc(OC)cc3)c2n1

>  <Potency>
> 9.22 µM (inactive)

$$$$
>  <sample.smiles>
CC(C)NCC[C@@H](O)c1cc2ccccc2o1

>  <Potency>
> 46 µM (inactive)

$$$$
>  <sample.smiles>
CC(C)CO[C@H](c1ccc2c(c1)OCO2)[C@H](C)Br

>  <Potency>
> 46 µM (inactive)

$$$$
>  <sample.smiles>
O=C(O)c1ccc(NCc2nc3cc4ccccc4cc3[nH]2)cc1

>  <Potency>
> 46 µM (inactive)

$$$$
>  <sample.smiles>
Clc1ccc(Cl)c(Nc2ccnc(SCc3ccccc3)n2)c1

>  <Potency>
> 46 µM (inactive)

$$$$
>  <sample.smiles>
COc1ccc(Oc2ncc3nc(C)c(=O)n(-c4ccc(OC)cc4)c3n2)cc1

>  <Potency>
> 9.22 µM (inactive)

$$$$
>  <sample.smiles>
O=c1ccc(-c2ccccc2)n[nH]1

>  <Potency>
> 46 µM (inactive)

$$$$
>  <sample.smiles>
Nc1cccc2cc(S(=O)(=O)Nc3ccc(C(=O)O)cc3)ccc12

>  <Potency>
> 46 µM (inactive)

$$$$
>  <sample.smiles>
O=C(O)CN(CC(=O)O)c1ccccc1

>  <Potency>
> 46 µM (inactive)

$$$$
>  <sample.smiles>
Cc1cc(C)c(O)c(Cc2cccc(Cc3cc(C)cc(C)c3O)c2O)c1

>  <Potency>
> 46 µM (inactive)

$$$$
>  <sample.smiles>
Cc1cccc(C)c1OC[C@@H](N)C(C)C

>  <Potency>
> 46 µM (inactive)

$$$$
>  <sample.smiles>
Fc1cccc(CSc2ncnc3c2ncn3[C@H]2CCCS2)c1

>  <Potency>
> 46 µM (inactive)

$$$$
